B1: Protein S100-G, residues 1 to 79; numbered along this chain, P02633 (parent)
chain: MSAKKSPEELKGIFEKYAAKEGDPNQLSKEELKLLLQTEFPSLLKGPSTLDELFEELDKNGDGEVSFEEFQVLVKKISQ

variants of: B1; experiment: abundance fitness (aPCA) (normalised: wild type 0, dead -1); higher = more abundant; growth selection in yeast, the domain comes from the species named; details: Bos taurus
Returns Condition met if the recorded abundance fitness is greater than or equal to -0.04, and Condition not met otherwise.

* Q37T | Condition met
* P7S | Condition met
* F14D | Condition not met
* T49S | Condition met
* E30A | Condition met
* S28M | Condition not met
* K76M | Condition not met
* L57E | Condition not met
* V65R | Condition not met
* Q71E | Condition met
* G22Q | Condition not met
* E69D | Condition met
* E30S | Condition met
* T38M | Condition not met
* K45P | Condition met
* L73A | Condition not met
